assay target: human KDR (Homo sapiens, UniProt P35968)
Sequence (P35968 20-1356): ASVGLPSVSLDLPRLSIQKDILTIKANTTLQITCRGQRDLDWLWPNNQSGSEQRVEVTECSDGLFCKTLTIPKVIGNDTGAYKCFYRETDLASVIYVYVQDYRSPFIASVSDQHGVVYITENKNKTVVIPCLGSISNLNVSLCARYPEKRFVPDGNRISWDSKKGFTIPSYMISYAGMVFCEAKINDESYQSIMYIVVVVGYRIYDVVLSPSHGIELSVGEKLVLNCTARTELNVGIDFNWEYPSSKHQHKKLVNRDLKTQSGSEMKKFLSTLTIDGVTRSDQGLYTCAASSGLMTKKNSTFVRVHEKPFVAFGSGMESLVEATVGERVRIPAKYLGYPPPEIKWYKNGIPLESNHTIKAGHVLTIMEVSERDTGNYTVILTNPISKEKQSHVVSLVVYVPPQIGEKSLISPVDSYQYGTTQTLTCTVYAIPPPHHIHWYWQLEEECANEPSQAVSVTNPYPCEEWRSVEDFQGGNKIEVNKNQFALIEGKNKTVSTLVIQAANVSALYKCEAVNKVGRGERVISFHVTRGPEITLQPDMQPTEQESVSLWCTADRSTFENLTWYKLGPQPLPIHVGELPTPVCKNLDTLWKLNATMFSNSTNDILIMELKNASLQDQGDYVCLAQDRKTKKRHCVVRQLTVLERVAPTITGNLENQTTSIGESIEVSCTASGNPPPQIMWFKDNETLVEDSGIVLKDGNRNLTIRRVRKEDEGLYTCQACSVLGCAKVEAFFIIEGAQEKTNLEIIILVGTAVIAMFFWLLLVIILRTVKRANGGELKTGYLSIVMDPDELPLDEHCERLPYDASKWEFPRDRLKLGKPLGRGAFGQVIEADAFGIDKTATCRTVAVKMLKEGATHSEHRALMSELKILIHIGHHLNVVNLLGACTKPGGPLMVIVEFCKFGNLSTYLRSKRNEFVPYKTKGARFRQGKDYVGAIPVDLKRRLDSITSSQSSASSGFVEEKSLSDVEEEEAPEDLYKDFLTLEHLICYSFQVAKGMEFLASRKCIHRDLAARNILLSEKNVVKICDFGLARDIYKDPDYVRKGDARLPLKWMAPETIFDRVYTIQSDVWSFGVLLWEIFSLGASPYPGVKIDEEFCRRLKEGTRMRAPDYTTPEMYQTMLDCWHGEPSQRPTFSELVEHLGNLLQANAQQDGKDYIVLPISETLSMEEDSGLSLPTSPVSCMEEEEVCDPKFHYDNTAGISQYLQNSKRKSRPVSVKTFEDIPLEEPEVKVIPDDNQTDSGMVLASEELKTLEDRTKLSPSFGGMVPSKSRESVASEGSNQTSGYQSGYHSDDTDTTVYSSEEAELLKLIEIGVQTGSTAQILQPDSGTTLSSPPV
procedure text: Inhibitory activity against KDR phosphorylation by ELISA (VEGF-stimulated NIH 3T3 cells expressing human KDR)
particulars: VEGF 100 ng/ml, compound 1 hr, read-out: IC50 (inhibition of KDR phosphorylation)
observed property: log10 IC50 (log10 of the value in nM)
Values reflect log10 of reported IC50 (nM).

>  <compound>
COc1cc2nccc(Oc3ccc(NC(=O)Nc4nc(C)cs4)c(F)c3)c2cc1OC.Cl [Ex. 28, hydrochloride]

>  <reported>
-0.52

$$$$
>  <compound>
COc1cc2nccc(Oc3ccc(NC(=O)Nc4nnc(C(C)(C)C)s4)c(C)c3C)c2cc1OC

>  <reported>
0.65

$$$$
>  <compound>
COc1cc2ncnc(Oc3ccc(NC(=O)Nc4cc(C)ns4)cc3)c2cc1OC

>  <reported>
1.74

$$$$
>  <compound>
CCOC(=O)Cc1csc(NC(=O)Nc2ccc(Oc3ccnc4cc(OC)c(OC)cc34)cc2F)n1

>  <reported>
1.69

$$$$

Attention now turns to another entry.
Output measured log10 IC50 for this item: `COc1cc2ncnc(Oc3ccc(NC(=O)Nc4cc(C)no4)cc3Cl)c2cc1OC`
1.13

* * *

Test system: Human pulmonary carcinoma cells (LC-6)
procedure text: Antitumor activity against human pulmonary carcinoma cells (LC-6) transplanted into nude mice
Assay type: in vivo
particulars: Mus musculus, 216 h; LC-6 in nude mice, oral 20 mg/kg once a day for 9 days; read-out: TGIR (tumor growth inhibition rate)
Description: Human pulmonary carcinoma cells (LC-6) (obtained from Central Laboratories for Experimental Animals) were transplanted into nude mice. […] The tumor growth inhibition rate (TGIR) was calculated as follows: The tumor growth inhibition rate (TGIR)=(1−TX/CX)×100 wherein CX represents the volume of tumor at day X for the control group when the tumor volume at the first day of the administration was presumed to be 1; and TX represents the tumor volume for test compound administration groups.
Where a name gives a salt, the structure may show the parent alone.
Consider the following compounds and their measured inhibition in vivo at 20 mg/kg readings.
Give just the number in %; leave the unit off.

Observe how each entry below is paired with its result.
>  <compound>
COc1cc2nccc(Oc3ccc(NC(=O)Nc4nnc(C(F)(F)F)s4)c(F)c3)c2cc1OC

>  <assay target>
Human pulmonary carcinoma cells (LC-6)

>  <units text>
%

>  <inhibition in vivo at 20 mg/kg>
45.6

$$$$
>  <compound>
COc1cc2nccc(Oc3ccc(NC(=O)Nc4nc(C)c(C)s4)c(Cl)c3)c2cc1OC

>  <assay target>
Human pulmonary carcinoma cells (LC-6)

>  <units text>
%

>  <inhibition in vivo at 20 mg/kg>
39.8

$$$$
>  <compound>
COc1cc2nccc(Oc3ccc(NC(=O)Nc4cc(C)on4)c(F)c3)c2cc1OC

>  <assay target>
Human pulmonary carcinoma cells (LC-6)

>  <units text>
%

>  <inhibition in vivo at 20 mg/kg>
63.5

$$$$
>  <compound>
COc1cc2nccc(Oc3ccc(NC(=O)Nc4ncc(C)s4)c(F)c3)c2cc1OC [Ex. 21, hydrochloride]

>  <assay target>
Human pulmonary carcinoma cells (LC-6)

>  <units text>
%

>  <inhibition in vivo at 20 mg/kg>
66.6

$$$$
>  <compound>
COc1cc2nccc(Oc3ccc(NC(=O)Nc4nnc(C(F)(F)F)s4)cc3F)c2cc1OC

>  <assay target>
Human pulmonary carcinoma cells (LC-6)

>  <units text>
%

>  <inhibition in vivo at 20 mg/kg>
20.7

$$$$
>  <compound>
COc1cc2nccc(Oc3ccc(NC(=O)Nc4nc(C)cs4)c(Cl)c3)c2cc1OC

>  <assay target>
Human pulmonary carcinoma cells (LC-6)

>  <units text>
%

>  <inhibition in vivo at 20 mg/kg>
43.8

$$$$
>  <compound>
COc1cc2nccc(Oc3ccc(NC(=O)Nc4nc(C)cs4)c(F)c3)c2cc1OC.Cl [Ex. 28, hydrochloride]

>  <assay target>
Human pulmonary carcinoma cells (LC-6)

>  <units text>
%

>  <inhibition in vivo at 20 mg/kg>
66.3

$$$$

Attention now turns to another entry.
Output measured inhibition in vivo at 20 mg/kg for this item: `COc1cc2ncnc(Oc3ccc(NC(=O)Nc4nccs4)c(Cl)c3)c2cc1OC`
92

* * *

assay target: human KDR (Homo sapiens)
Construct: expressed in transfected cells; host or cells: NIH 3T3 cells (mouse fibroblasts) stably expressing human KDR
procedure text: Inhibitory activity against KDR phosphorylation by ELISA (VEGF-stimulated NIH 3T3 cells expressing human KDR)
Type: cell-based
particulars: VEGF 100 ng/ml, compound 1 hr, read-out: IC50 (inhibition of KDR phosphorylation)
Consider the following compounds and their measured IC50 readings.
Give just the number in nM; leave the unit off.

Observe how each entry below is paired with its result.
>  <compound>
COc1cc2nccc(Oc3ccc(NC(=O)Nc4nnc(C(F)(F)F)s4)c(F)c3)c2cc1OC

>  <reported>
3.7

$$$$
>  <compound>
COc1cc2nccc(Oc3ccc(NC(=O)Nc4ncc(Cl)s4)c(Cl)c3)c2cc1OC

>  <reported>
2.8

$$$$
>  <compound>
COc1cc2nccc(Oc3ccc(NC(=O)Nc4nccs4)c(F)c3)c2cc1OC.Cl [Ex. 27, hydrochloride]

>  <reported>
0.3

$$$$

Output measured IC50 for this item: `COc1cc2nccc(Oc3ccc(NC(=O)Nc4nnc(C5CC5)s4)c(Cl)c3)c2cc1OC`
2.4

* * *

assay target: human KDR (Homo sapiens)
procedure text: Inhibitory activity against KDR phosphorylation by ELISA (VEGF-stimulated NIH 3T3 cells expressing human KDR)
particulars: VEGF 100 ng/ml, compound 1 hr, read-out: IC50 (inhibition of KDR phosphorylation)
Consider the following molecules and their measured pIC50 readings.
Hey, just a heads up that pIC50 is the negative log base 10 of the concentration in molar.

Observe how each entry below is paired with its result.
>  <molecule>
CCSc1nnc(NC(=O)Nc2ccc(Oc3ccnc4cc(OC)c(OC)cc34)cc2F)s1 [Ex. 70]

>  <reported>
8.66

$$$$
>  <molecule>
COc1cc2nccc(Oc3ccc(NC(=O)Nc4ncc(Br)s4)c(F)c3)c2cc1OC [Ex. 35]

>  <reported>
8.72

$$$$
>  <molecule>
COc1cc2nccc(Oc3ccc(NC(=O)Nc4nnc(C(F)(F)F)s4)c(Cl)c3)c2cc1OC [Ex. 72]

>  <reported>
8.54

$$$$
>  <molecule>
CCc1nnc(NC(=O)Nc2ccc(Oc3ccnc4cc(OC)c(OC)cc34)c(C)c2C)s1 [Ex. 62]

>  <reported>
8.82

$$$$
>  <molecule>
COc1cc2ncnc(Oc3ccc(NC(=O)Nc4nc(C)c(C)s4)cc3Cl)c2cc1OC [Ex. 49]

>  <reported>
8.51

$$$$
>  <molecule>
CCc1nnc(NC(=O)Nc2ccc(Oc3ccnc4cc(OC)c(OC)cc34)c(F)c2)s1 [Ex. 64]

>  <reported>
8.82

$$$$
>  <molecule>
CCOC(=O)Cc1csc(NC(=O)Nc2ccc(Oc3ccnc4cc(OC)c(OC)cc34)cc2Cl)n1 [Ex. 31]

>  <reported>
7.47

$$$$
>  <molecule>
COc1cc2nccc(Oc3ccc(NC(=O)Nc4nc(C)c(C)s4)cc3Cl)c2cc1OC [Ex. 25]

>  <reported>
8.72

$$$$
>  <molecule>
COc1cc2ncnc(Oc3ccc(NC(=O)Nc4cc(C)no4)c(Cl)c3)c2cc1OC [Ex. 13]

>  <reported>
8.66

$$$$
>  <molecule>
COc1cc2ncnc(Oc3ccc(NC(=O)Nc4cc(C)no4)cc3)c2cc1OC [Ex. 11]

>  <reported>
8.03

$$$$

Output measured pIC50 for this item: COc1cc2nccc(Oc3ccc(NC(=O)Nc4cc(C)no4)cc3Cl)c2cc1OC [Ex. 2]
8.70

Output measured pIC50 for this item: COc1cc2ncnc(Oc3ccc(NC(=O)Nc4cc(C)on4)cc3)c2cc1OC [Ex. 10]
8.44

Output measured pIC50 for this item: COc1cc2ncnc(Oc3ccc(NC(=O)Nc4nc(C)cs4)cc3Cl)c2cc1OC [Ex. 48]
8.36

Output measured pIC50 for this item: CCc1nnc(NC(=O)Nc2ccc(Oc3ccnc4cc(OC)c(OC)cc34)cc2)s1 [Ex. 59]
8.89

* * *

assay target: UniProt P35968
procedure text: Inhibitory activity against KDR phosphorylation by ELISA (VEGF-stimulated NIH 3T3 cells expressing human KDR)
particulars: VEGF 100 ng/ml, compound 1 hr, read-out: IC50 (inhibition of KDR phosphorylation)
observed property: pIC50
Hey, just a heads up that pIC50 is the negative log base 10 of the concentration in molar.

Observe how each entry below is paired with its result.
>  <item smiles>
COc1cc2nccc(Oc3ccc(NC(=O)Nc4nc(C)c(C)s4)c(C(F)(F)F)c3)c2cc1OC

>  <assay target>
UniProt P35968

>  <pIC50>
8.30

$$$$
>  <item smiles>
COc1cc2nccc(Oc3ccc(NC(=O)Nc4nc(C)c(C(C)=O)s4)c(F)c3)c2cc1OC

>  <assay target>
UniProt P35968

>  <pIC50>
8.92

$$$$
>  <item smiles>
COc1cc2ncnc(Oc3ccc(NC(=O)Nc4nccs4)cc3Cl)c2cc1OC

>  <assay target>
UniProt P35968

>  <pIC50>
8.13

$$$$

Name the value of pIC50 reported for `COc1cc2nccc(Oc3ccc(NC(=O)Nc4nnc(C(F)(F)F)s4)cc3)c2cc1OC` when tested on UniProt P35968.
8.20

Name the value of pIC50 reported for `COc1cc2ncnc(Oc3ccc(NC(=O)Nc4cc(C)on4)cc3Cl)c2cc1OC` when tested on UniProt P35968.
8.36

Name the value of pIC50 reported for `COc1cc2nccc(Oc3ccc(NC(=O)Nc4ncc(Br)s4)c(Cl)c3)c2cc1OC` when tested on UniProt P35968.
8.43
